# Assay Notes: Cytotoxicity against rat Highly aggressively proliferating immortalized Microglia cells assessed as inhibition of cell growth incubated for 24 hrs by CTG luminescence assay
# Format: toxicity, cell-based
Measured Endpoint: IC50 at 24 h (µM)
One number for each entry, in µM.

Bench note: what IC50 at 24 h did "CCCCCCC[C@@H](CC(=O)N[C@H](CO)CC(C)C)OC(=O)C[C@H](CCCCCCC)OC(=O)C[C@H](CCCCCCC)O[C@@H]1O[C@@H](C)[C@H](O)[C@@H](O)[C@H]1O" show?
22

====

# System: LXFL 529
# Assay Notes: Cytotoxicity against human LXFL 529 cells assessed as inhibition of cell proliferation by propidium iodide assay
# Type: functional, cell-based
Measured Endpoint: pIC50
Answers are plain numbers, as −log10 of the molar value.

Under LXFL 529: pIC50 value of "C/C=C(\C)[C@H](O[C@@H]1O[C@H](CO)[C@@H](O)[C@H](O)[C@H]1O)[C@H](C)/C=C(C)/C=C/C/C(C)=C/Cc1nc(OC)cc(O)c1C" ?
5.70

====

# System: MIA PaCa-2
# Assay Notes: Cytotoxicity against human MIA PaCa-2 cells assessed as inhibition of cell growth incubated for 72 hrs by CellTiter 96 aqueous one solution assay
# Assay type: functional, cell-based
# Condition Label: MIA PaCa-2, 72 h
Measured Endpoint: IC50 (µM)
Answers are plain numbers, in µM.

Smi | System Tested | Obs Value
CCCCCCCCCCCCc1cn(CC[C@H]2NC[C@@H](O)[C@H]2O)nn1 | MIA PaCa-2 | 19
CCCCCCCCCCCCc1cn(C[C@H]2NC[C@H](O)[C@@H]2O)nn1 | MIA PaCa-2 | 19
CCCCCCCCCCCCc1cn(C[C@@H]2N[C@@H](C)[C@@H](O)[C@H]2O)nn1 | MIA PaCa-2 | 19

Below: the item to evaluate.
Bench note: what IC50 did "CCCCCCCC/C=C\CCCCCCCCNC(=O)[C@H]1[C@@H]2OC(C)(C)O[C@@H]2[C@](C)(CO)N1CCCC" show?
3.6

====

# Tested on: HeLa
# Assay Notes: Antiproliferative activity against human HeLa cells assessed as inhibition of cell proliferation incubated for 48 hrs by SRB assay
# Type: functional, cell-based
Measured Endpoint: IC50 (µM)
Numbers only, in µM.

Bench note: what IC50 did "CCCCCCCCN[C@@H]1[C@H](O)[C@@H](O)[C@@H](O)[C@H]2COC(=O)N21" show?
30

====

# Assay Notes: Cytotoxicity against human SKW-3 cells assessed as inhibition of cell growth incubated for 72 hrs by MTT assay
# Type: functional, cell-based
# Condition Label: SKW3, 72 h
Measured Endpoint: IC50 (µM)
Numbers only, in µM.

Bench note: what IC50 did "CCCCCCCCCC[C@@H](CC(=O)O)OC(=O)C[C@H](CCCCCCCCCC)O[C@@H]1O[C@@H](C)[C@H](O)[C@@H](O)[C@H]1O" show?
54

====

# Test system: HepG2
# Assay Notes: Cytotoxicity against human HepG2 cells incubated for 48 hrs by MTT assay
# Format: functional, cell-based
# Condition Label: HepG2, 48 h
Measured Endpoint: IC50 (µM)
Numbers only, in µM.

Bench note: what IC50 did "CCCCC[C@@H]1CCCCCCCCCC(=O)O[C@H]2[C@@H](O)[C@H](O[C@H]3[C@H](O1)O[C@H](CO)[C@@H](O)[C@@H]3O)O[C@@H](C)[C@@H]2O[C@@H]1O[C@@H](C)[C@H](O[C@@H]2O[C@@H](C)[C@H](OC(=O)[C@@H](C)CC)[C@@H](OC(=O)/C=C/c3ccccc3)[C@H]2O)[C@@H](O[C@@H]2O[C@@H](C)[C@H](O)[C@@H](O)[C@H]2O)[C@H]1OC(=O)[C@@H](C)CC" show?
4.28

====

# Tested on: RXF 393
# Assay Notes: Cytotoxicity against human RXF 393 cells assessed as inhibition of cell proliferation by propidium iodide assay
# Assay type: functional, cell-based
Measured Endpoint: IC50 (µM)
One number for each entry, in µM.

Under RXF 393: IC50 value of "C/C=C(\C)[C@H](O[C@@H]1O[C@H](CO)[C@@H](O)[C@H](O)[C@H]1O)[C@H](C)/C=C(C)/C=C/C/C(C)=C/Cc1nc(OC)cc(O)c1C" ?
2

Source: ChEMBL document CHEMBL5260828
